Target: Human recombinant cathepsin K (Homo sapiens)
Construct: purchased Enzo Life Sciences
Sequence (P43235 115-329): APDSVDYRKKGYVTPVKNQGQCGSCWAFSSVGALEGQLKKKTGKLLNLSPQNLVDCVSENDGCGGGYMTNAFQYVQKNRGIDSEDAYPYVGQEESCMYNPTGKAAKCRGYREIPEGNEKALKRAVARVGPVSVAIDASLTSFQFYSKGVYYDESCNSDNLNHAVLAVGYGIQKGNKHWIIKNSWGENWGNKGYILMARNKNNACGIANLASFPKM
Assay: Cathepsin K assay (substrate Z-Leu-Arg-AMC)
Format: biochemical
Conditions: 50 µM inhibitor, 60 min; 100% = no inhibitor; n.i. = residual activity ≥ 95%; read-out: Percentage residual activity of human cathepsin K
measurement.type: remaining activity at 50 µM (%)
Answers are plain numbers, in %.

Examples from the recorded data:
| smiles.entry | measurement.type | recorded.number |
| --- | --- | --- |
| C#CCN(C)C(=O)C1=C(C)NC(C)=C(C(=O)N(C)CC#C)C1c1cccc(Cl)c1Cl | remaining activity at 50 µM | 81 |
| C#CCN(C)C(=O)C1=C(C)NC(C)=C(C(=O)N(C)CC#C)C1c1cccc(OC)c1 | remaining activity at 50 µM | 81 |

// below: remaining activity at 50 µM requested for another compound
Per the record, C#CCN(C)C(=O)C1=C(C)NC(C)=C(C(=O)N(C)CC#C)C1c1ccccc1OC has remaining activity at 50 µM of 82
